# studyTarget: UniProtKB P41145
# procedureText: κ-opioid receptor [35S]GTPγS functional assay, HEK-293 or CHO cells
# Assay type: biochemical
EC50 by entry:

Take a look at these entries with their results.
{"recordSmiles": "COC(=O)c1cc2c([nH]c1=O)C[C@]13CCN(CC4CC4)[C@H](Cc4ccc(OC)cc41)[C@@H]3C2", "measuredAttribute": "EC50", "experimentalValue": "0.0391 µM"}
{"recordSmiles": "NC(=O)[C@H](Cc1ccccc1)NC(=O)c1cc2c([nH]c1=O)C[C@]13CCN(CC4CC4)[C@H](Cc4ccc(O)cc41)[C@]3(O)C2", "measuredAttribute": "EC50", "experimentalValue": "> 20 µM"}
{"recordSmiles": "O=C(O)c1cc2c([nH]c1=O)C[C@]13CCN(CC4CC4)[C@H](Cc4ccc(O)cc41)[C@]3(O)C2", "measuredAttribute": "EC50", "experimentalValue": "> 20 µM"}

Inquiry: API: value(readout=EC50, system=UniProtKB P41145) for record COc1ccc2c(c1)[C@]13CCN(CC4CC4)[C@H](C2)[C@]1(O)Cc1cc(C(N)=O)c(=O)[nH]c1C3
Reply text: 5.38 µM

Just for reference, patent US8980906B2 is where these values come from.
